- TEST SYSTEM: D(2) dopamine receptor (Homo sapiens)
- Sequence (P14416 whole entry): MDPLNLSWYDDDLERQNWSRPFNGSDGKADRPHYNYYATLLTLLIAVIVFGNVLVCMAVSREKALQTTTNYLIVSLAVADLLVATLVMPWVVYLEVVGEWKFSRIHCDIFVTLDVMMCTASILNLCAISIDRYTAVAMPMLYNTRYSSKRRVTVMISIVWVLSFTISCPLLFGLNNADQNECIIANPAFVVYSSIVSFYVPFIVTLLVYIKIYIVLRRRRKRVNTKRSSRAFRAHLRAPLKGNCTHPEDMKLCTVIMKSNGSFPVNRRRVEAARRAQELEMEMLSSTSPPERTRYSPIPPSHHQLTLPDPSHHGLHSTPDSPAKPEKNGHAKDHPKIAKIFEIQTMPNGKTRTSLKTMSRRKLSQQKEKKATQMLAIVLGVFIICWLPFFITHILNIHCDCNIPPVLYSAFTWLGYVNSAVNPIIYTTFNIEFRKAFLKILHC
Rule for this label: 1.0 means Ki is less than 20 nM; 0.0 means Ki is at least 20 nM.

Use these answered entries as a reference point.
| STRUCTURE | ASSIGNED LABEL |
| --- | --- |
| COc1ccccc1N1CCN(CCCCCC(=O)NCc2ccc(OS(C)(=O)=O)cc2)CC1 | 0.0 |
| CC(C)c1ccccc1N1CCN(CCCCCC(=O)NCc2ccncc2)CC1 | 0.0 |
| O=C(CCCCCN1CCN(c2ccccc2-c2ccccc2)CC1)NCc1ccncc1 | 0.0 |
| CS(=O)(=O)Oc1ccc(CNC(=O)CCCCCN2CCN(c3ccccc3-c3ccccc3)CC2)cc1 | 0.0 |
| CSc1ccccc1N1CCN(CCCCCC(=O)NCc2ccncc2)CC1 | 0.0 |

// switching to the query compound
Query: Consider the compound CC(C)c1ccccc1N1CCN(CCCCCC(=O)NCc2ccc(OS(C)(=O)=O)cc2)CC1 . Is its Ki strictly less than 20 nM?
Reply: 1.0

====

- EXPERIMENTAL PROTOCOL: Elimination half life in CD1 albino mouse plasma at 10 mg/kg, ip
- STUDY CONDITIONS: read-out: beta t1/2
PARAMETER MEASURED: half-life (min)
Report only the number, with the unit min understood.

Query: So what's the measured half-life for this one? N#Cc1ccc(CNC(=O)CCCCCN2CCN(c3ccccc3-c3ccccc3)CC2)cc1
Reply: 65

====

In this section we review reported Ki values for a set of compounds.
- TEST SYSTEM: UniProtKB P08908
- Sequence (P08908 whole entry): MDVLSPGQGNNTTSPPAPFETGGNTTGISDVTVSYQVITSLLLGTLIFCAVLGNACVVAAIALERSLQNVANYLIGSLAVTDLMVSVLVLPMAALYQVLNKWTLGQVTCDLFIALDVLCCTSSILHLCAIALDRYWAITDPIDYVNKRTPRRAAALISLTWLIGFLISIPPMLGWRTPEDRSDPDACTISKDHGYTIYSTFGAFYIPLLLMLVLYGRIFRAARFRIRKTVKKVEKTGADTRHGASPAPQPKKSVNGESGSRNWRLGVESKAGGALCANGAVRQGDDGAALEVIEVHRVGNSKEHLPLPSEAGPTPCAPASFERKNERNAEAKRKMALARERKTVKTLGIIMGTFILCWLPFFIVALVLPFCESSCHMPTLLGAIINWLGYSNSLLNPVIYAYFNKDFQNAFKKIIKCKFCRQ
Report only the number, with the unit µM understood.

Query: So what's the measured Ki for this one? COc1ccccc1N1CCN(CCCCCC(=O)NCc2ccc(OS(C)(=O)=O)cc2)CC1
Reply: 0.029

====

- EXPERIMENTAL PROTOCOL: Elimination half life in CD1 albino mouse brain at 10 mg/kg, ip
- Assay type: ADME, organism-based
- Parameters: dose 10 mg/kg, route intraperitoneal
- STUDY CONDITIONS: read-out: beta t1/2
PARAMETER MEASURED: half-life (h)
Report only the number, with the unit h understood.

Query: So what's the measured half-life for this one? CSc1ccccc1N1CCN(CCCCCC(=O)NC2CCCc3ccccc32)CC1 (centres undefined)
Reply: 0.333

====

- EXPERIMENTAL PROTOCOL: Cmax in CD1 albino mouse plasma at 10 mg/kg, ip after 30 mins
- Type: ADME, organism-based
- Parameters: dose 10 mg/kg, route intraperitoneal
PARAMETER MEASURED: Cmax (ng/mL)
Report only the number, with the unit ng/mL understood.

Query: So what's the measured Cmax for this one? N#Cc1ccc(CNC(=O)CCCCCN2CCN(c3ccccc3-c3ccccc3)CC2)cc1
Reply: 760

Every entry's value here was drawn from ChEMBL document CHEMBL1140136.
